Tested on: HCC 2998
Assay: NCI tumour cell line growth inhibition, 48 h
Activity calls are given as the source filed them. Rule as the data show it: active = GI50 up to about 1.1 µM and inactive = higher.
endpoint_name: GI50

Q: Which GI50 is reported for this compound? COc1cc(-c2nn3c(=O)n(-c4ccc(Cl)cc4)c(=O)nc3s2)cc(OC)c1OC
Result: > 100 µM (inactive)

Q: Which GI50 is reported for this compound? CCCCn1c2c(n(CCCC)c1=S)-c1c(n(CCCC)c(=S)n1CCCC)SSc1c(n(CCCC)c(=S)n1CCCC)-c1c(n(CCCC)c(=S)n1CCCC)SSc1c(n(CCCC)c(=S)n1CCCC)-c1c(n(CCCC)c(=S)n1CCCC)SS2
Result: 12.6 µM (inactive)

Q: Which GI50 is reported for this compound? Cc1ccc(S(=O)(=O)Nn2c(S)c(C#N)c(-c3ccc(N(C)C)cc3)c(C#N)c2=O)cc1
Result: 38.2 µM (inactive)

Q: Which GI50 is reported for this compound? Cc1c(C(=O)C/C(=N/NC(=O)C[n+]2ccccc2)C(=O)Nc2ccccc2)[n+]([O-])c2ccccc2[n+]1[O-]
Result: > 100 µM (inactive)

Q: Which GI50 is reported for this compound? OC(COc1ccccc1)CN1CCCCC1 (stereo not drawn)
Result: > 100 µM (inactive)

Q: Which GI50 is reported for this compound? CCc1ccccc1NC(=O)C1=C(C)NC(C)=C(C(=O)Nc2ccccc2CC)C1c1cccc([N+](=O)[O-])c1
Result: 11.7 µM (inactive)

Q: Which GI50 is reported for this compound? Nc1c(C(=O)O)nnc2cc(Cl)ccc12
Result: > 100 µM (inactive)

Q: Which GI50 is reported for this compound? CC1(C)O[C@@H](CP(c2cccc3ccccc23)c2cccc3ccccc23)[C@H](CP(c2cccc3ccccc23)c2cccc3ccccc23)O1
Result: > 100 µM (inactive)

---

Answer each item with its documented GI50.
System: SNB-75
Test: NCI tumour cell line growth inhibition, 48 h
The source made the active and inactive calls. No stated cut-off is given here; in the data, active = GI50 up to about 1.1 µM and inactive = higher.

Q: Which GI50 is reported for this molecule? Cc1c(N2CCCC2)cc2c(c1NC(=O)c1ccccc1Cl)C(C)(C)CC2(C)C
Result: 15.5 µM (inactive)

Q: Which GI50 is reported for this molecule? CC(C)=CC1C(C(=O)Oc2ccccc2C(C)C)C1(C)C (stereo not drawn)
Result: 21.3 µM (inactive)

Q: Which GI50 is reported for this molecule? CC(C)(/N=N/C(C)(C)C(=N)N)C(=N)N
Result: > 100 µM (inactive)

Q: Which GI50 is reported for this molecule? Cc1ccc2nc(/C=N/c3ccc(Cl)cc3)cc(C)c2c1
Result: 17 µM (inactive)

Q: Which GI50 is reported for this molecule? CCCCCNC(=O)c1cc2cc(CCl)ccc2oc1=O
Result: 4.44 µM (inactive)

Q: Which GI50 is reported for this molecule? Cc1ccc(NC(=O)/C(Cl)=C(/Cl)C(=O)O)cc1
Result: 17.7 µM (inactive)

Q: Which GI50 is reported for this molecule? O=C(N/C(=C/c1ccc(Cl)cc1Cl)c1nc2ccccc2s1)c1ccccc1
Result: 17.9 µM (inactive)

Q: Which GI50 is reported for this molecule? Cc1ccc(S(=O)(=O)[C@@H](Cl)[C@H]2N=C(Cl)NN=C2c2ccccc2)cc1
Result: 27.9 µM (inactive)

Q: Which GI50 is reported for this molecule? COc1cc(-c2cc(=O)c3ccccc3o2)ccc1N
Result: 19.7 µM (inactive)

Q: Which GI50 is reported for this molecule? CCSc1nnc(Sc2c3ccccc3nc3ccccc23)s1
Result: 35.3 µM (inactive)

Q: Which GI50 is reported for this molecule? COc1c(OC)c(N)c2cc(C)c(=O)c(C)cc2c1N
Result: 56.4 µM (inactive)

Q: Which GI50 is reported for this molecule? O=CCC1CCCCC1
Result: > 100 µM (inactive)

Q: Which GI50 is reported for this molecule? Cc1n2nc(N)sc2n[n+]1CC(=O)c1ccccc1
Result: > 100 µM (inactive)

---

System: K562
Assay: NCI tumour cell line growth inhibition, 48 h
Calls of active or inactive are those of the source. Rule as the data show it: active = GI50 up to about 1.1 µM and inactive = higher.
Answer each item with its documented GI50.

Q: Which GI50 is reported for this molecule? Cc1ccnc2nc(-c3cccc(Cl)c3)cc(O)c12
Result: < 0.0143 µM (active)

Q: Which GI50 is reported for this molecule? Cc1cccc(C2=C/C(=C(\SS/C(C(=O)c3ccc(OCC(=O)O)c(Cl)c3Cl)=C3\C=C(c4cccc(C)c4)SS3)C(=O)c3ccc(OCC(=O)O)c(Cl)c3Cl)SS2)c1
Result: 4.31 µM (inactive)

Q: Which GI50 is reported for this molecule? CCCCCNC(=O)c1cc2cc(CCl)ccc2oc1=O
Result: 5.62 µM (inactive)

Q: Which GI50 is reported for this molecule? CCOC(=O)/C(=C/c1ccccc1Br)P(=O)(OCC)OCC
Result: 0.298 µM (active)

Q: Which GI50 is reported for this molecule? NCCOc1cccc(C2(N3CCCCC3)CCCCC2)c1
Result: 16 µM (inactive)

Q: Which GI50 is reported for this molecule? CCOC(=O)C(C)(C)Oc1ccc2c(-c3ccccc3)cc(=O)oc2c1
Result: 27.6 µM (inactive)

Q: Which GI50 is reported for this molecule? COC(=O)[C@H]1ON2O[C@@H](O[C@H]3CCCC[C@@H]3C(C)(C)c3ccccc3)C[C@@H]3CC[C@H]1[C@@]32C
Result: > 100 µM (inactive)

Q: Which GI50 is reported for this molecule? COc1c(OC)c(N)c2cc(C)c(=O)c(C)cc2c1N
Result: > 100 µM (inactive)

Q: Which GI50 is reported for this molecule? CS(=O)(=O)C1(Br)S(=O)(=O)OCCOS1(=O)=O
Result: > 100 µM (inactive)

Q: Which GI50 is reported for this molecule? CC(=O)n1c(=O)c2cc3c(=O)n(-c4cccc(C#N)c4)c(=O)c3cc2c1=O
Result: > 100 µM (inactive)

---

System: DMS-114
Assay: NCI tumour cell line growth inhibition, 48 h
Calls of active or inactive are those of the source. Cut-off read from the data, not from the text of the source: active = GI50 up to about 1.1 µM and inactive = higher.
Can you answer with just one of these options? y (active), n (inactive)

Q: Identify the outcome logged in this assay for the compound shown: CC(=O)O[C@@H]1CC[C@@]2(C)C(=O)C34C[C@@]5(C)C([C@@H](C)CCCC(C)C)CCC5(C)[C@](O)(O3)C(=O)[C@H]4C2C1(C)C (stereo partly specified)
Result: n

Q: Identify the outcome logged in this assay for the compound shown: Cc1cc(Br)ccc1/N=N/C1C(=O)ON=C1c1ccccc1 (stereo unspecified)
Result: n

Q: Identify the outcome logged in this assay for the compound shown: OC1CN(OC/C=C/c2ccccc2)CC(O)C1O (stereo unspecified)
Result: n

Q: Identify the outcome logged in this assay for the compound shown: Cn1c(=O)c2c3ccccc3c(C(=O)c3ccccc3)n2c2ccccc21
Result: n

Q: Identify the outcome logged in this assay for the compound shown: CSc1nc2nccnc2c(=O)[nH]1
Result: n

Q: Identify the outcome logged in this assay for the compound shown: Clc1ccc(-c2nnc(-c3nn(-c4ccccc4)c4nc5ccccc5nc34)o2)cc1
Result: n

Q: Identify the outcome logged in this assay for the compound shown: CN(C)C(=S)SSC(=S)N(C)C [THIRAM]
Result: y

Q: Identify the outcome logged in this assay for the compound shown: COc1cc(-c2cc(=O)c3ccccc3o2)ccc1N
Result: n

Q: Identify the outcome logged in this assay for the compound shown: Cc1ccccc1-c1nc2c(C(=O)NCCN(C)C)cccc2[nH]1
Result: n

Q: Identify the outcome logged in this assay for the compound shown: CC(=O)N1CCC2(C=Nc3ccccc32)CC1
Result: n

Q: Identify the outcome logged in this assay for the compound shown: O=C(Nc1cccc(O)c1)C(=O)C(C(=O)c1ccc(Cl)c(Cl)c1)C1OC(=O)c2ccccc21 (stereo unspecified)
Result: n

---

Tested on: HT-29
Experiment: NCI tumour cell line growth inhibition, 48 h
Active and inactive are the calls of the source. Rule as the data show it: active = GI50 up to about 1.1 µM and inactive = higher.
Can you answer with just one of these options? active, inactive

Q: Identify the outcome logged in this assay for the compound shown: N#Cc1ccc2oc3ccc(C#N)cc3c(=O)c2c1
Result: inactive

Q: Identify the outcome logged in this assay for the compound shown: Cc1ccc2c(c1)C(O)(c1ccccc1)CCS2 (configuration not stated)
Result: inactive

Q: Identify the outcome logged in this assay for the compound shown: Cn1cnc([N+](=O)[O-])c1Sc1nnnn1-c1ccccc1
Result: inactive

Q: Identify the outcome logged in this assay for the compound shown: COc1nc(OC)nc(Sc2ccc(Sc3ccc(Sc4nc(OC)nc(OC)n4)cc3)cc2)n1
Result: inactive

Q: Identify the outcome logged in this assay for the compound shown: CC1OC(OCC2COC(O)(Oc3c(-c4ccc(O)c(O)c4)oc4cc(O)cc(O)c4c3=O)C(O)C2O)C(O)C(O)C1O (configuration not stated)
Result: inactive

Q: Identify the outcome logged in this assay for the compound shown: CCCCCCCCCCCCCCCCCC(=O)Nc1ccn(C2CCC(COP(=O)(O)O)O2)c(=O)n1 (configuration not stated)
Result: inactive

Q: Identify the outcome logged in this assay for the compound shown: O=C1C=CC2(O[C@H](c3ccccc3)[C@@H](c3ccccc3)O2)C(SC(=O)c2ccccc2)C1 (some centres not stated)
Result: inactive

Q: Identify the outcome logged in this assay for the compound shown: CO/N=C(/C(=O)Nc1c[n+](CC(=O)[O-])cs1)c1csc(N)n1
Result: inactive

Q: Identify the outcome logged in this assay for the compound shown: c1ccc(COc2ccc3[nH]c4c5c6ccccc6nc-5c[nH]c4c3c2)cc1
Result: inactive

Q: Identify the outcome logged in this assay for the compound shown: O=c1oc2ccc3ccccc3c2cc1-c1cn2ccccc2n1
Result: inactive

Q: Identify the outcome logged in this assay for the compound shown: CCCCCCOc1ccc(NC2=C(Cl)C(=O)c3cccnc3C2=O)cc1
Result: inactive

Q: Identify the outcome logged in this assay for the compound shown: O=C(Nc1ccn(C2CCC(COC(c3ccccc3)(c3ccccc3)c3ccccc3)O2)c(=O)n1)c1ccccc1 (configuration not stated)
Result: inactive

Q: Identify the outcome logged in this assay for the compound shown: O=C(Cc1ccccc1)NN1C(=O)C(Cl)C1c1cccc(O)c1 (configuration not stated)
Result: inactive

Q: Identify the outcome logged in this assay for the compound shown: CC[C@]12C=CCN3CCC4(c5cc([C@@]6(C(=O)OC)CC7CN(CCc8c6[nH]c6ccccc86)C[C@@H]6CCCC[C@H]76)c(OC)cc5N(C)C4[C@](O)(C(=O)OC)C1OC(C)=O)[C@@H]32 (some centres not stated)
Result: active

Q: Identify the outcome logged in this assay for the compound shown: CCOC(=O)c1c(C)[nH]c2c1c(CN(C)C)c(O)c1nc(C)c(C)nc12
Result: inactive

Q: Identify the outcome logged in this assay for the compound shown: O=[N+]([O-])c1ccc(-c2ccc(C3=Nn4c(CNc5ccccc5Cl)nnc4SC3)o2)cc1
Result: inactive

Q: Identify the outcome logged in this assay for the compound shown: NNC(=S)N1CCN(C(=S)NN)CC1
Result: inactive

Q: Identify the outcome logged in this assay for the compound shown: O=[N+]([O-])C1CC/C(=N/O)c2nonc21 (configuration not stated)
Result: inactive

Q: Identify the outcome logged in this assay for the compound shown: Cn1c(=O)ccc2cc(C(=O)c3ccccc3)ccc21
Result: inactive

Q: Identify the outcome logged in this assay for the compound shown: COc1cc(CSc2ccc(O)cc2)cc(OC)c1OC
Result: inactive

Q: Identify the outcome logged in this assay for the compound shown: c1ccc(/C(=N/Nc2cnccn2)c2ncccn2)cc1
Result: inactive

Q: Identify the outcome logged in this assay for the compound shown: O=C(Nc1cccc(Cl)c1)c1cc2cc(/N=N/c3ccc(Br)cc3)ccc2oc1=O
Result: inactive
